Origin of values: the RNAGym collection of RNA variant scans (doi:10.7554/elife.80360)

B1: Hairpin Ribozyme (parent)
chain: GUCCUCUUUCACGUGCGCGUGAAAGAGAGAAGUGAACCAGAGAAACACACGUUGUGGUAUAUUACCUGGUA

Variants of: B1
Assay: self-cleavage, relative activity (ratio to wild type); higher = more cleavage; co-transcriptional
Response key: True means self-cleavage >= 0.2; False means self-cleavage < 0.2.

Recorded results for 3 variants are shown here.
- MUTATION_NOTATION: "U8C A49C"
  CATEGORY_LABEL: "True"
- MUTATION_NOTATION: "G51C G54C"
  CATEGORY_LABEL: "True"
- MUTATION_NOTATION: "C38G A71C"
  CATEGORY_LABEL: "True"

Now, please, on to the next variant.
query: Exam item: decide whether the reported self-cleavage for C16G G32C is at least 0.2.
result: False
